tested on: HT-29; assay: Cytotoxicity against human HT-29 cells assessed as inhibition of cell viability after 3 days by sulforhodamine B assay; type: functional, cell-based; conditions: HT-29, 72 h
reportedMetric: pIC50
Worth noting: pIC50 values are minus log10 of concentrations stated in mol/L.

| sampleSmiles | measuredTarget | resultValue |
| --- | --- | --- |
| C/C=C(/C)C(=O)O[C@H]1[C@H](O)[C@]2(CO)[C@H](O)C[C@]3(C)C(=CC[C@@H]4[C@@]5(C)CC[C@H](O)C(C)(C)[C@@H]5CC[C@]43C)[C@@H]2CC1(C)C | HT-29 | 5.77 |
| C/C=C(/C)C(=O)O[C@H]1[C@H](OC(C)=O)[C@]2(CO)[C@H](O)C[C@]3(C)C(=CC[C@@H]4[C@@]5(C)CC[C@H](O)C(C)(C)[C@@H]5CC[C@]43C)[C@@H]2CC1(C)C | HT-29 | 5.11 |

Consider the additional molecule presented here.
Q. What does the record list as pIC50 for `C/C=C(/C)C(=O)O[C@H]1CC(C)(C)C[C@H]2C3=CC[C@@H]4[C@@]5(C)CC[C@H](O)C(C)(C)[C@@H]5CC[C@@]4(C)[C@]3(C)[C@@H](O)[C@@H](O)[C@@]12CO` ?
A. 5.06

====

Reported IC50 values follow for various compounds
tested on: HT-29; assay: Cytotoxicity against human HT-29 cells assessed as inhibition of cell viability after 3 days by sulforhodamine B assay; format: functional, cell-based; settings: HT-29, 72 h

| sampleSmiles | IC50 |
| --- | --- |
| C/C=C(/C)C(=O)O[C@H]1[C@H](O)C(C)(C)C[C@H]2C3=CC[C@@H]4[C@@]5(C)CC[C@H](O)C(C)(C)[C@@H]5CC[C@@]4(C)[C@]3(C)[C@@H](O)[C@@H](O)[C@]21CO | > 10 µM |

Q. So what does the record say about IC50 for `C/C=C(/C)C(=O)O[C@@H]1[C@@H](O)[C@H](O[C@H]2CC(C)(C)C[C@H]3C4=CC[C@@H]5[C@@]6(C)C=C[C@H](O)C(C)(C)[C@@H]6CC[C@@]5(C)[C@]4(C)C[C@@H](O)[C@@]23CO)O[C@H](CO)[C@H]1OC(=O)/C(C)=C\C` ?
A. > 10 µM

Q. // lookup IC50 for `CC1(C)C[C@H]2C3=CC[C@@H]4[C@@]5(C)C=CC(=O)C(C)(C)[C@@H]5CC[C@@]4(C)[C@]3(C)C[C@@H](O)[C@@]2(CO)[C@@H](O)[C@@H]1O`
A. > 10 µM

The reported numbers originate from ChEMBL document CHEMBL3632490.
